For each record, write down the corresponding SK-Br-3 proliferation % inhibition.
TARGET: Human HER3, endogenous, on human cancer cell lines (SK-Br-3, MCF7, BT-474) (human, UniProt P21860 20-1342)
Sequence (P21860 20-1342): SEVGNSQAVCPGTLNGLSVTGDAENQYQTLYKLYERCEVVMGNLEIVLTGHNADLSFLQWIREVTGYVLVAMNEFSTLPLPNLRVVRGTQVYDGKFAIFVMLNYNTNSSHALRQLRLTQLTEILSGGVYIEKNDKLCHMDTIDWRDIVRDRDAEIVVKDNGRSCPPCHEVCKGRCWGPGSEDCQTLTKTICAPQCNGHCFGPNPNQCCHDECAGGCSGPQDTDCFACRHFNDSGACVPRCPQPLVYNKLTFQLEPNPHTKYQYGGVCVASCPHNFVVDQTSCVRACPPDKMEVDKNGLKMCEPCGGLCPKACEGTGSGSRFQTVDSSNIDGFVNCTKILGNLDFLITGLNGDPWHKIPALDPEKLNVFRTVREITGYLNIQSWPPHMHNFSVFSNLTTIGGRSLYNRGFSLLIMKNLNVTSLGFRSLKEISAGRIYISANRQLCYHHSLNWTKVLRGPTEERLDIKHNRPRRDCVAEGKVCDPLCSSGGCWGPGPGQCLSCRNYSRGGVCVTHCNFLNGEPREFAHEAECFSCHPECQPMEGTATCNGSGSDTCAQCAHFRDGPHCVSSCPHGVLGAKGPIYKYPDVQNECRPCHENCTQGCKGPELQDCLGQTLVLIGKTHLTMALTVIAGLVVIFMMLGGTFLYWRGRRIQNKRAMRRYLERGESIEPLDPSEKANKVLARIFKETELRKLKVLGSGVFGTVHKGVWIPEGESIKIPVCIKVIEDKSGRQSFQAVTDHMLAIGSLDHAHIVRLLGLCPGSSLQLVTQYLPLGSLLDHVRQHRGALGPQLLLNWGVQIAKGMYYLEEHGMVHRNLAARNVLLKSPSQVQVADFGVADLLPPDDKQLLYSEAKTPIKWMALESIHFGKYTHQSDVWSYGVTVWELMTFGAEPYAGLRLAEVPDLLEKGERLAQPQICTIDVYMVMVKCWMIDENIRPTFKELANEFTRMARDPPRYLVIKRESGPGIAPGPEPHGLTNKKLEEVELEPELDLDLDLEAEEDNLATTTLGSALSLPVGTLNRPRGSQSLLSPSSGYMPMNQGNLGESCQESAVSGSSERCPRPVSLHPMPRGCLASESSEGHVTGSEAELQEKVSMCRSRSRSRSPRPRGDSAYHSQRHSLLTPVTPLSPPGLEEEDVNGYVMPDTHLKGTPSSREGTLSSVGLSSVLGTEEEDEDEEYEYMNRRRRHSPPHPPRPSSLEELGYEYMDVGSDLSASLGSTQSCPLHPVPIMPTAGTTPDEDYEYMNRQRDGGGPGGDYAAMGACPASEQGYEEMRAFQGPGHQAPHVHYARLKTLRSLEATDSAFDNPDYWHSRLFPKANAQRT
EXPERIMENT SUMMARY: cell-based or functional assay
Put down the number, then write its unit next to it.

[in] // Input: MOR13752 (antibody, human IgG1, kappa, V domains shown, tested as IgG) VH: QVQLVQSGAEVKKPGESLKISCKGSGYSFTNYWVAWVRQMPGKGLEWMGIIYPGGSDTIYSPSFQGQVTISADKSISTAYLQWSSLKASDTAMYYCARVHIIQPPSAWSYNAMDVWGQGTLVTVSS VL: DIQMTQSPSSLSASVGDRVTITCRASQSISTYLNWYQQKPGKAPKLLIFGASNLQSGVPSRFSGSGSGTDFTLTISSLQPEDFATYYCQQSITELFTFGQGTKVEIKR . Output its SK-Br-3 proliferation % inhibition only.
[out] 40%

[in] // Input: MOR13869 (antibody, human IgG1, kappa, V domains shown, tested as IgG) VH: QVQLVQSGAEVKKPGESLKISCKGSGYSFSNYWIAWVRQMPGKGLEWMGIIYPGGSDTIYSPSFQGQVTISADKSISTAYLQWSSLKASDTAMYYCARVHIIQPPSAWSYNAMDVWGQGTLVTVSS VL: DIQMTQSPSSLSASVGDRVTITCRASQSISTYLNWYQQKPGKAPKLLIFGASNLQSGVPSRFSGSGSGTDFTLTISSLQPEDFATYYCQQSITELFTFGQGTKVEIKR . Output its SK-Br-3 proliferation % inhibition only.
[out] 24%

[in] // Input: MOR13758 (antibody, human IgG1, kappa, V domains shown, tested as IgG) VH: QVQLVQSGAEVKKPGESLKISCKGSGYSFTLYWVAWVRQMPGKGLEWMGIIYPGQSDTIYSPSFQGQVTISADKSISTAYLQWSSLKASDTAMYYCARVHIIQPPSAWSYNAMDVWGQGTLVTVSS VL: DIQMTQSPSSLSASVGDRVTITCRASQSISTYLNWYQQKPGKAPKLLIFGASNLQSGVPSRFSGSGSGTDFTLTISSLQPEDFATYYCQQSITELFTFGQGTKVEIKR . Output its SK-Br-3 proliferation % inhibition only.
[out] 47%

Where these numbers come from: patent US20130273029A1
